TEST_DESCRIPTION: Cellular viability qHTS for adrenocortical cancer (ACC) cell line SW-13 (AID 1963989);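 note: cells grown in serum-free medium with ITS supplement; % is set by controls: 0 for no effect and ±100 for the full control effect; nearly all actives have a fitted effect of over 65% in size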
MEASUREMENT_SETUP: SW-13 ACC cells viability, CellTiter-Glo, 48 h; hits give low values
Inconclusive results are not listed. Bridge positions count the residues as written; N and C are the ends. Square brackets hold non-standard residues; d marks the D form. Peptide text beside a SMILES is read from it. * marks the point of attachment. ξ: configuration not given here. Octanoyl(6-Me) = CCC(C)CCCCC(=O)*; ξThr(3R) = C[C@@H](O)C(N)C(=O)O; dDab = NCC[C@@H](N)C(=O)O; Dab = NCC[C@H](N)C(=O)O
Collected activity (max response) values appear next to each entry.

COMPOUND	READING_UNIT	activity (max response)
CSc1ccc(C(=O)c2[nH]c(=O)[nH]c2C)cc1	%	15.3
NCCS	%	16.9
COc1cc(C(=S)N2CCOCC2)ccc1O	%	-19.3
CN1CCN(C2=Nc3ccccc3Oc3ccc(Cl)cc32)CC1	%	-13.7
NS(=O)(=O)c1cc2c(cc1Cl)NC(C1CC3C=CC1C3)NS2(=O)=O (stereo not given)	%	-7.72
CC(C)C[C@@H]1[C@H](c2ccccc2)OC(=O)N1CCCN1CCCCCC1	%	-14.7
CC(O)CCCCn1c(=O)c2c(ncn2C)n(C)c1=O (stereo not given)	%	7.24
COc1ccc2c(c1)c(CC(=O)OC/C=C(\C)CC/C=C(\C)CCC=C(C)C)c(C)n2C(=O)c1ccc(Cl)cc1	%	2.52
CC1CCc2cc(F)cc3c(=O)c(C(=O)O)cn1c23 (stereo not given)	%	5.01
CCOCc1nc2c(N)nc3ccccc3c2n1CC(C)(C)O	%	-23.1
COC(=O)/C=C/C(=O)OC	%	-9.41
Cc1ccc(-c2ccccc2C#N)cc1	%	12.9
O=C(Oc1ccccc1C(=O)O)c1ccccc1O	%	-2.11
CO[C@@]1(NC(=O)C(C(=O)O)c2ccc(O)cc2)C(=O)N2C(C(=O)O)=C(CSc3nnnn3C)CO[C@@H]21 (stereo not given in full)	%	13.4
CCC(C)CCCCC(=O)N[C@@H](CCN)C(=O)NC(C(=O)N[C@H](CCN)C(=O)N[C@@H]1CCNC(=O)C([C@@H](C)O)NC(=O)[C@@H](CCN)NC(=O)[C@@H](CCN)NC(=O)[C@@H](CC(C)C)NC(=O)[C@H](Cc2ccccc2)NC(=O)[C@H](CCN)NC1=O)[C@@H](C)O (stereo partly drawn) ({Octanoyl(6-Me)}-[Dab][ξThr(3R)][dDab][dDab][Dab]F[dL][dDab][dDab][ξThr(3R)]; lactam 4-C)	%	3.16
CCN(c1cc(-c2ccc(CN3CCOCC3)cc2)cc(C(=O)NCc2c(C)cc(C)[nH]c2=O)c1C)C1CCOCC1	%	-2.62
Nc1cccc2c1CN([C@H]1CCC(=O)NC1=O)C2=O	%	-17.5
C[C@@H](O)[C@H]1C(=O)N2C(C(=O)O)=C(S[C@@H]3CN[C@H](CNS(N)(=O)=O)C3)[C@H](C)[C@H]12	%	7.35
CC[N+](CC)(CC(=O)Nc1c(C)cccc1C)Cc1ccccc1	%	1.59
CC(=O)Nc1ccc(S(=O)(=O)Nc2cc(C)on2)cc1	%	11.6

Data credit: PubChem BioAssay (NCATS)
